- System: Bacillus subtilis
- assayProtocol: cleaved RNA product abundance (RNA/gDNA barcode ratio) relative to median wild-type variant (ratio to wild type); higher = more accumulation of the downstream cleavage product
- settings: experiment (reporter, strain, medium): exp 4a: truncated aprE reporter, strain BJT201 with 2% xylose (RNase J1 expressed); cleavage site: cggR-gapA (positions -7 to +36 mutated)
Kindly state cleaved RNA product abundance for each of the entries shown.
Answers are plain numbers.

ACAGACGAAGGAGCCGCAAAGAAGTTATTAAGGGATGAAAAATACCTCAATATAAATATCTCTCACTTATTTAAA ... 0.169
ACAGACGAAGGAGCCGCAAATAAGTTATTAAGGGATGAATAATTCCTCAATATAAATATCTCTCACTTATTTAAA ... 0.547
ACAGACGAAGGAGCCGCAAAGAAGTTATTAAGGGATGAATAATCCCTCATTATAAATAACTCTCACTTATTTAAA ... 0.248
ACAGACGAAGGAGCCGCAAAGAAGTTATTAAGGGATGAATAATGCCTCAAAATAAATATCTCTCACTTATTTAAA ... 0.173
ACAGACGAAGGAGCCGCAAAGAAGTTATTATAGGATGAATAATCCCTCAATATAAATATCTCTCACTTATTTAAA ... 0.203

List reported cleaved RNA product abundance for each of these sequences:
1. ACAGACGAAGGAGCCGCAAAAAAGTTATTAAGGGATGAATAATCCCTCAATATAGATATCTCTCACTTATTTAAA
2. ACAGACGAAGGAGCCGCAAAGAAGTTATTAAAGGAAGAATAATCCCTCAATATAAATATCTCTCACTTATTTAAA

0.644
0.112
